- MEASUREMENT TARGET: Peroxisome proliferator-activated receptor gamma/Nuclear receptor coactivator 3 (Homo sapiens)
- Sequence (P37231 whole entry): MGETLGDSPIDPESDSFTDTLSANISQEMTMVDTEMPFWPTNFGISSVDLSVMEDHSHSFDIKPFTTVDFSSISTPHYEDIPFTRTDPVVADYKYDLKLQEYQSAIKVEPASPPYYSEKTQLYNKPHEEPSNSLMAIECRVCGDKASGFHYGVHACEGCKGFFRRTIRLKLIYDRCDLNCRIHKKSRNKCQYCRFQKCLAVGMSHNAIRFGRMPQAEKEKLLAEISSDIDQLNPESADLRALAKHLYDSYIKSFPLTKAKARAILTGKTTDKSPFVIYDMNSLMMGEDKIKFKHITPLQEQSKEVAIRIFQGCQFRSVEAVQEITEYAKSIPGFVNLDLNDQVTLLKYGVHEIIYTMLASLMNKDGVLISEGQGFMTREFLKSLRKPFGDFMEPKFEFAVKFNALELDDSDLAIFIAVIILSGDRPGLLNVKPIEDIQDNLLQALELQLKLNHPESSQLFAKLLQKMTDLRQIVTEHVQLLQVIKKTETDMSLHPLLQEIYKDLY
- Sequence (Q9Y6Q9 whole entry, further chain): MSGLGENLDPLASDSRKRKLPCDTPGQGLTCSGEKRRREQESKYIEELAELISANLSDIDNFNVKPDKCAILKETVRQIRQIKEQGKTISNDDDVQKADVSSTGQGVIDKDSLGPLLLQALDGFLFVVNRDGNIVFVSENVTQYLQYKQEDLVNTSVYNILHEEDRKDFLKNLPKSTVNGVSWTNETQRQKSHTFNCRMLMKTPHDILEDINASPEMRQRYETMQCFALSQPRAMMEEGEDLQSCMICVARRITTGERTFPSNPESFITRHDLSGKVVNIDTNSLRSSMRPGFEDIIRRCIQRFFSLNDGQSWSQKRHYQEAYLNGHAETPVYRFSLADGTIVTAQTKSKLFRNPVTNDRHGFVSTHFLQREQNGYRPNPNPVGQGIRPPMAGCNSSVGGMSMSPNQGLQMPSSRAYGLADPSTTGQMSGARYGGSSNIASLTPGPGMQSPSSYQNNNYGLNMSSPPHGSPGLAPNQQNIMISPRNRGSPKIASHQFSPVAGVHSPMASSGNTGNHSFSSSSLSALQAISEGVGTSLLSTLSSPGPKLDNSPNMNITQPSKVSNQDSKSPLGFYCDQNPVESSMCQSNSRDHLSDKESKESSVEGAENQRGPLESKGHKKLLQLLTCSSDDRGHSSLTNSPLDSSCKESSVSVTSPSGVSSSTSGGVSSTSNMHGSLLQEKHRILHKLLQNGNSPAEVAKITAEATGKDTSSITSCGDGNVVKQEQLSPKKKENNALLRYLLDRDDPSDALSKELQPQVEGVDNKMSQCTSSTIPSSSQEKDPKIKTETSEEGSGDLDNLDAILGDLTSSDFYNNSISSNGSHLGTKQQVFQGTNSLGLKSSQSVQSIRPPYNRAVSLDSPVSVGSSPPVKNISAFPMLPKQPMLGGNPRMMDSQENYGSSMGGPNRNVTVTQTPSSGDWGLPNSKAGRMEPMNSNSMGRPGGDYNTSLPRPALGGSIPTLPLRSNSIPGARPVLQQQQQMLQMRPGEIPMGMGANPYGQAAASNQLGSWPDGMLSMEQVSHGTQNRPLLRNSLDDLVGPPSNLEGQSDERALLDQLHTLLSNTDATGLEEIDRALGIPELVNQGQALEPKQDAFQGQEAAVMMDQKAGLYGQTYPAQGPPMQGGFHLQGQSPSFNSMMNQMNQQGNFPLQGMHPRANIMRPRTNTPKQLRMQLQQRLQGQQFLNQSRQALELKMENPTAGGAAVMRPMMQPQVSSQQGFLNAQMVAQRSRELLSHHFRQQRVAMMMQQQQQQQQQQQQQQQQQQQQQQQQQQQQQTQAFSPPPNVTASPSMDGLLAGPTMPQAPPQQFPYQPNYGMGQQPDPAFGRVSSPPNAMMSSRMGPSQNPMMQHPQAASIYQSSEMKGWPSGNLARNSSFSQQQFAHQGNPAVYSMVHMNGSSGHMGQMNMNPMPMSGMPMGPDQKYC
- ASSAY METHOD TEXT: TR-FRET dose response biochemical High Throughput Screening assay for agonists of the steroid receptor coactivator 3 (SRC-3) recruitment by the peroxisome proliferator-activated receptor gamma (PPAR gamma): non-selective agonists. [Related pubchem assays: 1301 (Confirmation screen.), 1048 (Primary screen.)]
- Assay type: functional
READOUT KIND: EC50

>>> observed_result("CNC(=S)N1N=C(c2ccc(Br)cc2)CC1c1ccc(OC)cc1 (stereo not given)")
"49.9 µM (not active)"

Problem: Fill in reported EC50 for this entry: `O=C(O)c1cc(-c2ccc(Cl)s2)nc2ccccc12`
Solution: > 79.4 µM (not active)

Problem: Read the entry `COC(=O)c1ccc(CSc2ncnc3c2oc2ccccc23)o1` and write its reported EC50.
Solution: > 79.4 µM (not active)

Problem: Return EC50 for the following compound: `CCn1c(=O)cc(SCC(=O)NCc2ccccn2)c2ccccc21`
Solution: > 79.4 µM (not active)

Problem: For the compound `Cc1cc2nc(-c3ccc(SCC(=O)Nc4ccc(S(=O)(=O)N5CCCC5)cc4)nc3)[nH]c2cc1C` , give its measured EC50 value.
Solution: > 79.4 µM (not active)

---

- Tested on: Streptococcus sp. 'group A'
- ASSAY METHOD TEXT: Streptococcus pyogenes SK(-)GAS viability under kanamycin – luminescence, BacTiterGlo, confirmation, counter-screen for streptokinase expression inhibitor project, dose response (AID 1900)
- Assay type: functional, organism-based
Activity calls are given as the source filed them.
READOUT KIND: EC50

>>> observed_result("O=C1C(NS(=O)(=O)c2cccs2)=C(N2CCN(c3cccc(C(F)(F)F)c3)CC2)C(=O)c2ccccc21")
"7.31 µM (active)"
>>> observed_result("COc1ccc(Cl)cc1C(Nc1cccnc1)c1ccc2cccnc2c1O (centres undefined)")
"3.74 µM (active)"
>>> observed_result("CCCCCCc1nc2ccccc2c(=O)n1NC(=O)c1c(O)c2c(n(CC(C)C)c1=O)CCCC2")
"84.9 µM (active)"

--- query ---
Problem: Please report EC50 for the following molecule: `COc1ccc(CN(C)S(=O)(=O)c2ccc3c(c2)OCCO3)cc1`
Solution: > 150 µM (not active)

---

# IC50 per entry for Glyceraldehyde-3-phosphate dehydrogenase (Homo sapiens, UniProt P04406)

Examples from the recorded data:
>>> observed_result("O=C1C(Cl)=C(Cl)C(=O)N1c1cccc(Cl)c1Cl")
"> 100 µM (not active)"
>>> observed_result("Cc1oc2c(c1C(=O)Nc1cccc(C(=O)O)c1)CCCC2")
"> 100 µM (not active)"
>>> observed_result("COc1cccc(Cc2nnc(N3C(=O)c4ccccc4C3=O)[nH]2)c1")
"> 100 µM (not active)"

Problem: Using Glyceraldehyde-3-phosphate dehydrogenase (Homo sapiens, UniProt P04406) as the test system, report measured IC50 of `O=C1C(Cl)=C(N2CCN(Cc3ccccc3)CC2)C(=O)N1c1ccc(Cl)nc1` .
Solution: > 50 µM (inconclusive)

Problem: Provide the reported IC50 (system: Glyceraldehyde-3-phosphate dehydrogenase (Homo sapiens, UniProt P04406)) for O=C1CC(c2ccccc2)Cc2[nH]ncc21 (stereo unspecified)
Sequence (P04406 whole entry): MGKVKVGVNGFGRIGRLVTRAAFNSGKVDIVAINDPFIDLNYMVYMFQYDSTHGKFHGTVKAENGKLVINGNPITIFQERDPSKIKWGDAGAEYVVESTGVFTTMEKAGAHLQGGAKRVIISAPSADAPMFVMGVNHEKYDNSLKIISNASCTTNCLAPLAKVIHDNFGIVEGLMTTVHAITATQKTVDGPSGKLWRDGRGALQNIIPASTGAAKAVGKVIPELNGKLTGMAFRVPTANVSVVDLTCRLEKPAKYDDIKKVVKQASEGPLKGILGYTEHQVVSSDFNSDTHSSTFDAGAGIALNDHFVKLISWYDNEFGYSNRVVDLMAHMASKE
Solution: > 100 µM (not active)

Problem: Fill in: IC50 on Glyceraldehyde-3-phosphate dehydrogenase (Homo sapiens, UniProt P04406), entry `COC(=O)c1cc(-c2ccc(Cl)cc2Cl)n[nH]1`
Solution: > 100 µM (not active)

---

- MEASUREMENT TARGET: Endoplasmic reticulum aminopeptidase 1 (Homo sapiens)
- Sequence (Q9NZ08 whole entry): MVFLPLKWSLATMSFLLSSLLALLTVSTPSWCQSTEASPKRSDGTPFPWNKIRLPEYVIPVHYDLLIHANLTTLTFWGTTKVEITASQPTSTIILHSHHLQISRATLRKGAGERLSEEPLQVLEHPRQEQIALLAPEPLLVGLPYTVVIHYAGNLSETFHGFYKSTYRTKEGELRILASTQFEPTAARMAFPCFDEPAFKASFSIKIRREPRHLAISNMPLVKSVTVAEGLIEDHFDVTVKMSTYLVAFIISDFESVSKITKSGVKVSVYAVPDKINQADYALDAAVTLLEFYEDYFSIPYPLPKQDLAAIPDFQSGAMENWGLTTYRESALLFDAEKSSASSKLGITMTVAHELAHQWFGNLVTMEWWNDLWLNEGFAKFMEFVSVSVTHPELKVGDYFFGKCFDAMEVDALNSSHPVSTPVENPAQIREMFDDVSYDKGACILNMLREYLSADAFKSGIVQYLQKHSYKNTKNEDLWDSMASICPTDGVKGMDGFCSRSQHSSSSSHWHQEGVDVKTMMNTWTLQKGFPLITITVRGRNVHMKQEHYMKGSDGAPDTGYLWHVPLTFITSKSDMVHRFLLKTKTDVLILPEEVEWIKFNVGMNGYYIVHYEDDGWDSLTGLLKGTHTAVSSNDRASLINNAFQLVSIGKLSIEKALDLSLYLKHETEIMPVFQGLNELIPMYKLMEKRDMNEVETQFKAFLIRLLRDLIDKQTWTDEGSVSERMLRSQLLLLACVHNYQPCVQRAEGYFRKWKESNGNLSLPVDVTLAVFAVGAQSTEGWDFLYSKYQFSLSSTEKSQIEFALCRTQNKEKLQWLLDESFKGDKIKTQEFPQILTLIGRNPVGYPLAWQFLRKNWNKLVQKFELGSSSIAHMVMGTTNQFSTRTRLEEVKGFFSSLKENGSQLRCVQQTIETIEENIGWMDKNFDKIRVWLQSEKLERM
- ASSAY METHOD TEXT: inhibition of human ERAP1 enzyme activity – biochemical, cherry-pick, set 2, plate reader, dose response (AID 743314)
Calls of active or inactive are those of the source.
READOUT KIND: AC50

Problem: Write down AC50 measured for item `CC(=O)N1[C@@H]2Cn3c(ccc(/C=C/c4ccccc4)c3=O)[C@H]1[C@@H](C(=O)NCC1CC1)[C@@H]2CO`
Solution: 8.13 µM (active)

Problem: Check the records and state AC50 for `Cc1cc(=O)oc2cc(NS(=O)(=O)c3ccc(F)cc3)ccc12`
Solution: 8.8 µM (active)

Problem: Given the molecule CC1CCCC(C)N1CCCNC(=O)c1cc2c(s1)-c1ccccc1OC2 (centres undefined) , write its reported AC50.
Solution: 12.5 µM (active)

Problem: Check the records and state AC50 for `CCCc1cc(=O)oc2c(CN3CCN(C)CC3)c(O)ccc12`
Solution: 7.87 µM (active)

---

- MEASUREMENT TARGET: Rac GTPase-activating protein 1 (Homo sapiens, UniProt Q9H0H5)
- Sequence (Q9H0H5 whole entry): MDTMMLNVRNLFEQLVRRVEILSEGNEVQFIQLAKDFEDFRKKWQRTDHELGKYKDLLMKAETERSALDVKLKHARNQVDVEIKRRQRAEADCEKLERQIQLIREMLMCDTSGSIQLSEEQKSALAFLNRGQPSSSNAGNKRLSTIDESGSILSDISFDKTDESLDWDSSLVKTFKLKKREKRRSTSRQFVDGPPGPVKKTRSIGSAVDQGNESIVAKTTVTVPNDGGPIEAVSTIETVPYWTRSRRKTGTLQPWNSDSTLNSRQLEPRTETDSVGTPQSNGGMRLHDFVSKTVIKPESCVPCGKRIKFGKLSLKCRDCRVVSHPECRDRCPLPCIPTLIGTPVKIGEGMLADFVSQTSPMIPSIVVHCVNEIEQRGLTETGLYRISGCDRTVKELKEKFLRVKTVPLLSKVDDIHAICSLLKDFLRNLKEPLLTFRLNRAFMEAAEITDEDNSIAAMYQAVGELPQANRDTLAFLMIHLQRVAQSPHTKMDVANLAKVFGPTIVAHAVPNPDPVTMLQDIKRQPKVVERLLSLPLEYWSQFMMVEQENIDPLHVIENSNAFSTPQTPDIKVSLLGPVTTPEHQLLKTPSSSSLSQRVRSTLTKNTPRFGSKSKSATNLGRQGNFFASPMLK
- ASSAY METHOD TEXT: blockers of MgcRacGAP-driven Rac1 GTP hydrolysis – biochemical, ADP Hunter fluorescence, primary and confirmatory, confirmation (AID 624330)
- Type: functional
Activity calls are given as the source filed them.
Reported IC50 is given for each of the following compounds.

>>> observed_result("Cc1cc(Cl)c(OCCOCCN2CCN(C)CC2)c(Br)c1")
"63.9 µM (active)"
>>> observed_result("c1ccc2c(c1)Nc1ccncc1S2")
"269 µM (active)"
>>> observed_result("CCOC(=O)c1[nH]c2ccccc2c1N=C(S)Nc1cccc(C)c1C")
"95.4 µM (active)"
>>> observed_result("COc1ccc2cc(C(=O)Nc3ccc(O)cc3)sc(=O)c2c1OC")
"24.8 µM (active)"
>>> observed_result("O=C(CSc1ccc2ccccc2n1)N/N=C/c1ccc(O)cc1")
"73.2 µM (active)"
>>> observed_result("Nc1ccc2c(c1Br)Cc1ccccc1-2")
"43.8 µM (active)"

Please look at the following compound next.
Problem: # return recorded IC50 for entry `COc1cc(/C=C/C(=O)OCC(=O)N2CCN(S(=O)(=O)c3ccc(C)cc3C)CC2)ccc1O`
Solution: 88.2 µM (active)

---

- MEASUREMENT TARGET: Phospholipase A2 (Homo sapiens, UniProt P04054);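 further: confirmatory dose-response counterscreen on phospholipase A2, testing hits that came from an ultra-high-throughput screen for ATG4B inhibitors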
- Sequence (P04054 whole entry): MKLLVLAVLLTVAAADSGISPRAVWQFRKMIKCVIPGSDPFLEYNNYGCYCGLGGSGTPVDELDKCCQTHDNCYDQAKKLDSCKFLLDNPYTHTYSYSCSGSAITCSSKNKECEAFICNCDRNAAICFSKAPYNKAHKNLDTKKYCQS
- Format: functional
The source made the active and inactive calls.
Classes to choose from: class 1 (active), class 0 (inactive)

>>> assigned_label("Cc1cc(OCc2cc(C(=O)O)oc2C)c2c3c(c(=O)oc2c1)CCCC3")
"class 1"

Problem: Which outcome was assigned to `COc1ccc(-n2cccc2/C=C2\C(=N)N3N=C(c4ccco4)SC3=NC2=O)cc1` in this test?
Solution: class 1

Problem: Please share the test call associated with `Cc1ccc(C(=O)Nc2nc(-c3ccco3)c(-c3ccco3)s2)o1` .
Solution: class 1

Problem: Could you check what this test reported for `O=C1C(SCCO)=C(SCCO)C(=O)c2ccccc21` ?
Solution: class 0

---

This document collects AC50 values reported for Cytochrome P450 2D6 (Homo sapiens, UniProt P10635).

>>> observed_result("CCOC(=O)CC(NC(=O)c1cccs1)c1ccc(OCC)cc1 (stereo not given)")
"14.1 µM (inconclusive)"

Problem: // output AC50; input `COc1ccccc1CNc1ncncc1-c1ccc(C(=O)N(C)C)cc1` ; system Cytochrome P450 2D6 (Homo sapiens, UniProt P10635);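 further: CYP2D6 member of a cytochrome P450 panel assay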
Solution: 39.8 µM (inconclusive)

Problem: Using Cytochrome P450 2D6 (Homo sapiens, UniProt P10635) as the test system, report measured AC50 of `O=C1C(SCCO)=C(SCCO)C(=O)c2ccccc21` .
Solution: 31.6 µM (inconclusive)

---

- MEASUREMENT TARGET: Cytochrome P450 1A2 (Homo sapiens, UniProt P05177);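 further: PubChem cytochrome P450 panel assay, CYP1A2 panel member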
- Sequence (P05177 whole entry): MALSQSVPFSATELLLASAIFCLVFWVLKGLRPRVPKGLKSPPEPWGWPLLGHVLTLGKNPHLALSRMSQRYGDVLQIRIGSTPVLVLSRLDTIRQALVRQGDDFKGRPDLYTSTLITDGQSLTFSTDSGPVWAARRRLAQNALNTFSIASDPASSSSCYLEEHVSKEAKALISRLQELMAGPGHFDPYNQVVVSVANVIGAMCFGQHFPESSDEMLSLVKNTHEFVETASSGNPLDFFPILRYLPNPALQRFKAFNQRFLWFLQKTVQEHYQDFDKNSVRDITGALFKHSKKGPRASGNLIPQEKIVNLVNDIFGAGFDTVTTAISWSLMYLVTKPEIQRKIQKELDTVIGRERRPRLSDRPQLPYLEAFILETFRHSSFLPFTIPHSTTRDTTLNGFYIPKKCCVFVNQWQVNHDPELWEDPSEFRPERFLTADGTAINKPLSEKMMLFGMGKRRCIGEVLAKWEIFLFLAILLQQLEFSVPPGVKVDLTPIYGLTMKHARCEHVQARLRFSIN
READOUT KIND: AC50

Solved entries:
>>> observed_result("CCCCCCc1nc2ccccc2c(=O)n1NC(=O)c1c(O)c2c(n(CC(C)C)c1=O)CCCC2")
"15.8 µM (inconclusive)"
>>> observed_result("CCO[C@H]1O[C@@H]([C@H](COCc2ccccc2)OCc2ccccc2)[C@@H](OCc2ccccc2)[C@H]1O")
"12.6 µM (inconclusive)"
>>> observed_result("COC(=O)c1ccccc1NS(=O)(=O)c1ccc2c3c(cccc13)C(=O)N2")
"15.8 µM (inconclusive)"

Problem: State, in one line, measured AC50 of `NCCCCNS(=O)(=O)c1ccc2c(Cl)cccc2c1`
Solution: 39.8 µM (inconclusive)

Problem: State, in one line, measured AC50 of `O=C(O)c1ccccc1-c1ccccc1C(=O)Nc1ccc2c(c1)[nH]c(=O)c1ccccc12`
Solution: 0.00316 µM (inconclusive)
